Each entry below carries its reported kon.
- Target system: T1, his-tagged B7-H3 (UniProt Q5ZPR3-2 29-245, limits assumed)
- T1 construct: also called CD276; not shown: His tag
- T1 sequence (looked up): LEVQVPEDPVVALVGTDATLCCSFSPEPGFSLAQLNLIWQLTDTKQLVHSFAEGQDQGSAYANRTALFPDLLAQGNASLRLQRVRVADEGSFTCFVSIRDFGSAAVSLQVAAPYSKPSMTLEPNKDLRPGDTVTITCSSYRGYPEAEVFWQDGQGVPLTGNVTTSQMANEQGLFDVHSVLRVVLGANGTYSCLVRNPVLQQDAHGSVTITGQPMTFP
- Measurement notes: SPR, Carterra LSA; binder captured by anti-human Fc, his-tagged B7-H3 injected
Numbers only; they are read as M⁻¹ s⁻¹.

# Binder, Reported
data = [
    ("40579p1.B8 scFv-Fc (scFv, V domains shown) VH: EVQLLESGGGLVQPGGSLRLSCAASGFTFSDYYMSWVRQAPGKGLEWVSGISMSSTIYYADSVKGRFTISRDNSKNTLYLQMNSLRAEDTAVYYCARHRSPYQYRSMDVWGQGTTVTVSS VL: EIVLTQSPGTLSLSPGERATLSCRASQSVNSKLAWYQQKPGQPPSLLIYDASRRATGIPDRFSGSGSGTEFTLTISSLQSEDFAVYYCQQYNNWPPLTFGGGTKVEIK", 622000),
    ("Benchmark MGA-271 (antibody, V domains shown) VH: EVQLVESGGGLVQPGGSLRLSCAASGFTFSSFGMHWVRQAPGKGLEWVAYISSDSSAIYYADTVKGRFTISRDNAKNSLYLQMNSLRDEDTAVYYCGRGRENIYYGSRLDYWGQGTTVTVSS VL: DIQLTQSPSFLSASVGDRVTITCKASQNVDTNVAWYQQKPGKAPKALIYSASYRYSGVPSRFSGSGSGTDFTLTISSLQPEDFATYYCQQYNNYPFTFGQGTKLEIK", 72000),
]

Next item in the queue.
kon for 40579p1.H7 scFv-Fc (scFv, V domains shown, Tested as scFv-Fc supernatant) VH: EVQLLESGGDLVQPGGSLRLSCAASGFNFSSYWMSWVRQAPGKGLEWVSGISISYGGNAYYADSVKGRFTVSRDNSKNTLYLQMNSLRAEDTAVYYCGRDRSPYQYRSMDVWGQGTTVTVSS VL: EIVLTQSPGTLSLSPGERATLSCRASQSIRSDLAWYQQKPGQAPRLLIYGASSRATGIPARFSGSGSGTEFTLTISSLQSEDFAVYYCQQYNNWPPLTFGGGTKVEIK ?
281000
